Listed here are compounds together with their documented Dose.
species on record: Cavia porcellus; test: Dose required to produce 75% increase in developed tension of inotropic effect in guinea pig atria.; assay type: functional

# COMPOUND, Dose, µM
rows = [
    ("CC(=O)O[C@H]1[C@H](OC2CC[C@@]3(C)C(CCC4[C@@H]3CC[C@]3(C)[C@@H](C5=CC(=O)OC5)CC[C@@]43O)C2)O[C@H](CN=[N+]=[N-])[C@H]1OC(C)=O (stereo not given in full)", 0.44),
    ("CC(=O)O[C@H]1[C@H](OC2CC[C@@]3(C)C(CC[C@@H]4[C@@H]3CC[C@]3(C)[C@@H](C5=CC(=O)OC5)CC[C@@]43O)C2)O[C@H]2[C@@H]1N(C(=O)C(F)(F)F)C[C@H]2OC(C)=O (stereo not given in full)", 0.65),
    ("CC(=O)OC[C@H]1O[C@@H](OC2CC[C@@]3(C)C(CC[C@@H]4[C@@H]3CC[C@]3(C)[C@@H](C5=CC(=O)OC5)CC[C@@]43O)C2)[C@H](OC(C)=O)[C@@H]1OC(C)=O (stereo not given in full)", 3),
    ("C[C@]12CC[C@H](O[C@@H]3O[C@H](CO)[C@@H](O)[C@H]3O)C[C@@H]1CC[C@@H]1[C@@H]2CC[C@]2(C)[C@@H](C3=CC(=O)OC3)CC[C@@]12O", 0.64),
    ("C[C@H]1O[C@@H](O[C@H]2[C@@H](O)C[C@H](O[C@H]3[C@@H](O)C[C@H](O[C@H]4CC[C@@]5(C)[C@H](CC[C@@H]6[C@@H]5C[C@@H](O)[C@]5(C)[C@@H](C7=CC(=O)OC7)CC[C@]65O)C4)O[C@@H]3C)O[C@@H]2C)C[C@H](O)[C@@H]1O", 0.82),
    ("C[C@]12CC[C@H](O[C@@H]3O[C@H](CN=[N+]=[N-])[C@@H](O)[C@H]3O)C[C@@H]1CC[C@@H]1[C@@H]2CC[C@]2(C)[C@@H](C3=CC(=O)OC3)CC[C@@]12O", 0.43),
    ("C[C@]12CC[C@H](O)C[C@H]1CC[C@@H]1[C@@H]2CC[C@]2(C)[C@@H](C3=CC(=O)OC3)CC[C@]12O", 0.64),
    ("C[C@]12CC[C@H](O[C@@H]3O[C@H](CN)[C@@H](O)[C@H]3O)C[C@@H]1CC[C@@H]1[C@@H]2CC[C@]2(C)[C@@H](C3=CC(=O)OC3)CC[C@@]12O", 0.35),
    ("C[C@]12CCC(O[C@@H]3O[C@H]4[C@H](NC[C@H]4O)[C@H]3O)CC1CC[C@@H]1[C@@H]2CC[C@]2(C)[C@@H](C3=CC(=O)OC3)CC[C@@]12O (stereo not given in full)", 0.86),
    ("CC(=O)O[C@H]1[C@H](OC2CC[C@@]3(C)C(CC[C@@H]4[C@@H]3CC[C@]3(C)[C@@H](C5=CC(=O)OC5)CC[C@@]43O)C2)O[C@H]2[C@@H]1OC[C@H]2OC(C)=O (stereo not given in full)", 0.53),
]

The reported numbers originate from ChEMBL document CHEMBL1123520.
